Values compiled from the RNAGym collection of RNA variant scans (doi:10.1126/science.aae0568).

B1: tRNA (parent)
chain: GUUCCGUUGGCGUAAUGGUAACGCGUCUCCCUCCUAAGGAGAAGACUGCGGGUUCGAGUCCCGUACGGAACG

- Variants of: B1
- Test Summary: yeast fitness relative to wild type (ratio to wild type); higher = fitter; tRNA-Arg(CCU), competitive growth, 37 C, YPD
This sample holds only a part of the variants without activity.
Listed here are variants together with their documented yeast fitness.
Measure Name: yeast fitness

In [3]: df
Out[3]:
                             sequence_string   measure_name  experimental_result
 0  GUUCCGUUGGCGUAAUGGUAACGCGUCUCCCUCCUAAGGGGAAGACUGCGGGUUCGUGUCCCGUACGGAACG [A40G A57U]  yeast fitness                0.624
 1  GUCCCGUUGGCGUAAUGAUAACGCGUCUCCGUCCUAAGGAGAAGACUGCGGGUUCGAGUCCCGUACGGAACG [U3C G18A C31G]  yeast fitness                ≤ 0.5
 2  GUUCCGUCGGCGUAAUGGUAACGCGUCUCCCUCCUAAGGAGAACACUGCGGGUUCGAGUGCCGUACGGAACG [U8C G44C C60G]  yeast fitness                 0.53
 3  GUUCCGUUGGCGUAAAGGUAACGCGUCUCGCUCCUACGGAGAAGACUGCGGGUUCGAGUCCCGUACGGAACG [U16A C30G A37C]  yeast fitness                ≤ 0.5
 4  GUUCCGUUGGCGUAAUGGUAACGCCUCUCCCUCCUAAGGAGAAGACUGUGAGUUCGAGUCCCGUCCGGCACG [G25C C49U G51A A65C A69C]  yeast fitness                ≤ 0.5
 5  GUUCCGCUGGCGUAAUGGUAACGCGUCUCCCUCCUAAGGAGAAGACUGCGGGUUCGAGUCCCGUCCGGAACG [U7C A65C]  yeast fitness                0.912
 6  GUUCCGUUGGCGUAAUGGUCACGCGUCUUCCACCUAAGGAGAAGACUGCGGGUUCGAGUCCUGUACGGAUCG [A20C C29U U32A C62U A70U]  yeast fitness                ≤ 0.5
 7  GAUCCGUUGGCGUAAUGGUAACGCGUCUCCCUCUUAAGGAGAAGACUACGGGUUCGAGUUCCGUACGGAACG [U2A C34U G48A C60U]  yeast fitness                0.602
 8  GUUCCGUUGGCGUAAUGGUAACGGGUCUGCCUUCUAAGGAGAAGACUGCGGGUUCGAGUCCCGUACGGAACG [C24G C29G C33U]  yeast fitness                ≤ 0.5
 9  GUUCCGUUGGCGUAAUGGUAACGCGUCUCCCUCCUAAGGAGAAGACUGCGGGUUCGAGUCCCGCACGCAACG [U64C G68C]  yeast fitness                0.978
10  GUUCCGUUGGCGUAAUGGUACCGCGUUUCCCUCCUAAGGAGAAGACUGCGGGUUCGAGUCCCGUACGGAACG [A21C C27U]  yeast fitness                0.774
11  GUUCCGUUGGCGUAGUGGAAACGCGUCACCCUCCUAAGGAGAAGACUGCGGGUUAGAGUCCCGUUCGGAACG [A15G U19A U28A C55A A65U]  yeast fitness                ≤ 0.5
12  GUUCCGUUGGCGUAAUGGAAACGCGUCUCCCUCCUAAGGAGAAGACUGCGGGUUCGAGUCCCGUACGGACCG [U19A A70C]  yeast fitness                 1.03
13  GUUCUGUUCGGGUAAUGGUAACGAGGCUCCGUCCUAAGGAGAAGUCUGCGGGUUCGAGUCUCGUACGGAACG [C5U G9C C11G C24A U26G C31G A45U C61U]  yeast fitness                ≤ 0.5
14  GUUCCGUUGGCGUAAUGGUACAGCGUCUCCCUCCUAAGGAGAAGACUGCGGGUUCGAGUUCCGUACGGAACG [A21C C22A C60U]  yeast fitness                ≤ 0.5
15  GUUCCGUUGGCGUAAUGGUAACGCGUCUCCCUCCUAACGAGGGGACUGCGGGUUCGAGUCCCGUACGGAACG [G38C A42G A43G]  yeast fitness                ≤ 0.5
16  GUUCCGUUGCCGUAAUGGUAACGCGUCACCCUCCUAAGGAGAAGACUGCGGGUUCGAGUCCCGUACGGAACG [G10C U28A]  yeast fitness                 0.59
17  GUUCCGUUGGCGUAAUGGUAAUCCGUCUCCCUCCUAAGGAGAAGACUGCGGGUUUGAGUGCCGUACGGAACG [C22U G23C C55U C60G]  yeast fitness                 0.54
18  GUUCGGUUGGCGUCAUGGUAACCCGUCUCCCUCCUAAAGAGAAGACUGCGGGUUCGACUCCCAUACGGAGCG [C5G A14C G23C G38A G58C G63A A70G]  yeast fitness                ≤ 0.5
19  GUUCCGUUGGCGUAAUGGUAACGCGUCUCCCUCCUAACGAGAAGACUGCGGGUACGAGUCCCGUCCGGAACG [G38C U54A A65C]  yeast fitness                0.567
20  GUCCCGUUGGCGUAAUGGUAACGCGUCUCCCUCAUAAGGAGAAAACUGCGGAUUUGAGUCCCGUACGGAACG [U3C C34A G44A G52A C55U]  yeast fitness                0.562
21  GUUCGGAUGGCGUAAUGGUGACGCGUCUCCCUCCUAAGGAGAAGACGGCCCGUUCGAGUCCCGUACGGAACG [C5G U7A A20G U47G G50C G51C]  yeast fitness                ≤ 0.5
